Item-by-item account of Skin graft survival (mean survival time ± S.D.)
- Tested on: pinch skin graft
- Test method notes: Pinch skin graft survival test procedure
- Type: in vivo, male BALB/c donors, male C3 H(H-2K) recipients (mice)
- Assay conditions: 4 mg/kg; intraperitoneally or orally; untreated grafts usually rejected within 6-7 days
Property label: Skin graft survival (mean survival time ± S.D.) (days)

{"columns": ["Chemical string", "Tested target", "Unit info", "Result value"],
 "data": [
  ["CO[C@H]1C[C@@H]2CC[C@@H](C)[C@@](O)(O2)C(=O)C(=O)N2CCCC[C@H]2C(=O)O[C@H]([C@H](C)C[C@@H]2CC[C@@H](OC(=O)c3cccnc3)[C@H](OC)C2)CC(=O)[C@H](C)/C=C(\\C)[C@@H](O)[C@@H](OC)C(=O)[C@H](C)C[C@H](C)/C=C/C=C/C=C/1C", "pinch skin graft", "days", 9.60],
  ["CO[C@H]1C[C@@H]2CC[C@@H](C)[C@@](O)(O2)C(=O)C(=O)N2CCCC[C@H]2C(=O)O[C@H]([C@H](C)C[C@@H]2CC[C@@H](OC(=O)c3cccnc3C)[C@H](OC)C2)CC(=O)[C@H](C)/C=C(\\C)[C@@H](O)[C@@H](OC)C(=O)[C@H](C)C[C@H](C)/C=C/C=C/C=C/1C", "pinch skin graft", "days", 11.2],
  ["CO[C@H]1C[C@@H]2CC[C@@H](C)[C@@](O)(O2)C(=O)C(=O)N2CCCC[C@H]2C(=O)O[C@H]([C@H](C)C[C@@H]2CC[C@@H](OC(=O)c3ccc(C)nc3)[C@H](OC)C2)CC(=O)[C@H](C)/C=C(\\C)[C@@H](O)[C@@H](OC)C(=O)[C@H](C)C[C@H](C)/C=C/C=C/C=C/1C", "pinch skin graft", "days", 12.5],
  ["CO[C@H]1C[C@@H]2CC[C@@H](C)[C@@](O)(O2)C(=O)C(=O)N2CCCC[C@H]2C(=O)O[C@H]([C@H](C)C[C@@H]2CC[C@@H](OC(=O)c3cnc(C)cn3)[C@H](OC)C2)CC(=O)[C@H](C)/C=C(\\C)[C@@H](O)[C@@H](OC)C(=O)[C@H](C)C[C@H](C)/C=C/C=C/C=C/1C", "pinch skin graft", "days", 11.33]
]}

Reference source: patent US5385909A
